Assay Target: B1R receptor of the rat (rB1R) (Rattus norvegicus)
Construct: expressed in transfected cells; host or cells: CHO K1 cells, stably transfected
Assay Comment: FLIPR Ca2+ functional study on bradykinin receptor 1, rB1R cells (CHO K1)
Type: cell-based
Conditions: 10 μM test substance; CHO K1 cells with rat B1R; agonist Des-Arg9-bradykinin at EC80; read-out: B1R antagonism, rat [10 μM] % inhibition
Parameter Measured: inhibition at 10 µM (%)
One number for each entry, in %.

Below: 2 molecules and their reported inhibition at 10 µM.
| Molecule | Parameter Measured | Units Symbol | Readout Value |
| --- | --- | --- | --- |
| O=C(/C=C/c1ccccc1Cl)N1CCc2ccc(C(=O)N3CCC4(CC3)CCN(c3ccncc3)CC4)cc2C1 | inhibition at 10 µM | % | 90 |
| O=C(NCc1ccccc1Cl)N1CCc2ccc(C(=O)N3CCC4(CC3)CCN(c3ccncc3)CC4)cc2C1 | inhibition at 10 µM | % | 97 |

Hey, quick one: what's inhibition at 10 µM for each of these?
1. O=C(Cc1ccc2c(c1)N(S(=O)(=O)c1cccc3ccccc13)CCC2)N1CCC2(CCN(c3ccncc3)CC2)C1
2. O=C(c1ccc2c(c1)CN(S(=O)(=O)c1cccc3c(Cl)cccc13)CC2)N1CCC2(CC1)CCN(c1ccncc1)CC2
3. COc1cc(C)c(S(=O)(=O)N2CCCc3ccc(CC(=O)N4CCC5(CCN(c6ccncc6)C5)C4)cc32)c(C)c1 (stereo not drawn)
4. Cc1cccc(Cl)c1S(=O)(=O)N1CCCc2ccc(CC(=O)N3CCC4(CC3)CCN(c3ccncc3)CC4)cc21
5. O=C(c1ccc2c(c1)CN(C(=O)c1ccccc1Cl)CC2)N1CCC2(CC1)CCN(c1ccncc1)CC2

1: 106; 2: 78; 3: 102; 4: 98; 5: 92

Hey, quick one: what's inhibition at 10 µM for each of these?
1. COc1cc(C)c(S(=O)(=O)N2CCCc3ccc(C(=O)N4CCC5(CCN(Cc6ccccc6)C5)C4)cc32)c(C)c1 (stereo not drawn)
2. COc1cc(C)c(S(=O)(=O)N2CCCc3ccc(CC(=O)N4CCC5(CC4)CCN(C4CCC4)C5)cc32)c(C)c1

[58, 80]

----------
So I've got a bunch of molecules here, and I need their inhibition at 10 µM values.
Assay Target: B1R receptor of the rat (rB1R) (Rattus norvegicus, UniProt P97583)
Construct: expressed in transfected cells; host or cells: CHO K1 cells, stably transfected
Sequence (P97583 whole entry): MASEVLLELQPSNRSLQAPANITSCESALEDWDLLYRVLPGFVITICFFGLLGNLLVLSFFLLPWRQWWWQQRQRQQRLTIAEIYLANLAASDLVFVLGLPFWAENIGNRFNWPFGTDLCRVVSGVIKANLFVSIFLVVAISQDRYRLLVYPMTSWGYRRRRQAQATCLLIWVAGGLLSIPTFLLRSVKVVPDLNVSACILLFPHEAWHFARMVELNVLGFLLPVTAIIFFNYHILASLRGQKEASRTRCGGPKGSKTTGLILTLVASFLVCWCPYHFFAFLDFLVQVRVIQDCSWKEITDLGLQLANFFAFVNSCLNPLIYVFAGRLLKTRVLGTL
Assay Comment: FLIPR Ca2+ functional study on bradykinin receptor 1, rB1R cells (CHO K1)
Type: cell-based
Conditions: 10 μM test substance; CHO K1 cells with rat B1R; agonist Des-Arg9-bradykinin at EC80; read-out: B1R antagonism, rat [10 μM] % inhibition
Numbers only, in %.

Below: 4 molecules and their reported inhibition at 10 µM.
| Molecule | Units Symbol | inhibition at 10 µM |
| --- | --- | --- |
| COc1cc(C)c(S(=O)(=O)N2CCCc3ccc(C(=O)N4CCC5(CC4)C(=O)N(C)CC5c4ccc(F)cc4)cc32)c(C)c1 (centres unmarked) | % | 51 |
| O=C(c1cc2c(s1)CCN(C(=O)c1ccccc1Cl)C2)N1CCC2(CC1)CCN(c1ccncc1)CC2 | % | 81 |
| O=C(c1cccc2c1CN(S(=O)(=O)c1cccc(Cl)c1Cl)CC2)N1CCC2(CC1)CCN(c1ccncc1)CC2 | % | 91 |
| COc1cc(C)c(S(=O)(=O)N2CCc3sc(C(=O)N4CCC5(CC4)CCN(c4ccncc4)CC5)cc3C2)c(C)c1 | % | 97 |

Let us move to another entry and its inhibition at 10 µM.
Give inhibition at 10 µM; test system B1R receptor of the rat (rB1R) (Rattus norvegicus, UniProt P97583); molecule COc1cc(C)c(S(=O)(=O)N2CCc3onc(C(=O)N4CCC5(CC4)CCN(c4ccncc4)CC5)c3C2)c(C)c1 95

----------
Assay Target: B1R receptor of the rat (rB1R) (Rattus norvegicus, UniProt P97583)
Construct: expressed in transfected cells; host or cells: CHO K1 cells, stably transfected
Assay Comment: FLIPR Ca2+ functional study on bradykinin receptor 1, rB1R cells (CHO K1)
Assay type: cell-based
Conditions: 10 μM test substance; CHO K1 cells with rat B1R; agonist Des-Arg9-bradykinin at EC80; read-out: B1R antagonism, rat [10 μM] % inhibition
Parameter Measured: inhibition at 10 µM (%)
Numbers only, in %.

| Molecule | Units Symbol | Readout Value |
| --- | --- | --- |
| O=C(c1cn2c(n1)CN(C(=O)c1ccc(Cl)s1)CC2)N1CCC2(CC1)CCN(c1ccncc1)CC2 [Compound G-71] | % | 80 |
| COc1cc(C)c(S(=O)(=O)N2CCc3ccc(C(=O)N4CCC5(CC4)CCN(Cc4ccc(F)cc4)C5=O)cc32)c(C)c1 [G_CC-006] | % | 71 |
| COc1cc(C)c(S(=O)(=O)N2CCc3ccc(C(=O)N4CCC5(CC4)CCN(Cc4ccc(F)cc4)C5=O)cc3C2)c(C)c1 [G_CC-039] | % | 71 |

Let us move to another entry and its inhibition at 10 µM.
Report inhibition at 10 µM, nothing else, for this molecule: O=C(c1ccccc1Cl)N1CCc2onc(C(=O)N3CCC4(CC3)CCN(c3ccncc3)CC4)c2C1 [Compound G-13] 94

----------
Assay Target: human B1R receptor (hB1R) (Homo sapiens, UniProt P46663)
Construct: expressed in transfected cells; host or cells: CHO K1 cells, stably transfected
Sequence (P46663 whole entry): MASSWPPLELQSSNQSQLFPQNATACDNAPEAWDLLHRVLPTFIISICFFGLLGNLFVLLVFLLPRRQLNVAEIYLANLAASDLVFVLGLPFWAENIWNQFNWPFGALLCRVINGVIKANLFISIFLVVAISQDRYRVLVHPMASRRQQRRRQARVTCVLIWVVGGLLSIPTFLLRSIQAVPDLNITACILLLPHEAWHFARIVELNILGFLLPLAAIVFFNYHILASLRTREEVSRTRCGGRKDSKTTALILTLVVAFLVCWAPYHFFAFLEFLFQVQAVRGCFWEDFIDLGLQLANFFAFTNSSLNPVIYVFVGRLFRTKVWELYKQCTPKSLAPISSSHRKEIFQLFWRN
Assay Comment: FLIPR Ca2+ functional study on bradykinin receptor 1, hB1R cells (CHO K1)
Format: cell-based
Conditions: CHO-K1, 10 μM test substance; CHO K1 cells with human B1R; agonist Lys-Des-Arg9-bradykinin at EC80; read-out: B1R antagonism, human [10 μM] % inhibition
So I've got a bunch of compounds here, and I need their inhibition at 10 µM values.
Give bare numbers, in %.

Below: 4 compounds and their reported inhibition at 10 µM.
| Compound | Units Symbol | inhibition at 10 µM |
| --- | --- | --- |
| COc1cc(C)c(S(=O)(=O)N2CCCc3ccc(CC(=O)N4CCC5(CCN(c6ccncc6)C5)C4)cc32)c(C)c1 (stereo not drawn) | % | 100 |
| Cc1cccc(Cl)c1S(=O)(=O)N1Cc2ccc(C(=O)N3CCC4(CC3)CCN(c3ccncc3)CC4)cc2C1 | % | 90 |
| COc1cc(C)c(S(=O)(=O)N2CCc3ccc(CC(=O)N4CCC5(CC4)CCN(c4ccncc4)CC5)cc3C2)c(C)c1 | % | 99 |
| O=C(Cc1ccc2c(c1)N(S(=O)(=O)c1cccc3ccccc13)CCC2)N1CCC2(CCN(c3ccncc3)CC2)C1 | % | 98 |

Hey, quick one: what's inhibition at 10 µM for each of these?
1. COc1ccc2c(Cl)c(C(=O)N3CCc4ccc(C(=O)N5CCC6(CC5)CCN(c5ccncc5)CC6)cc4C3)sc2c1
2. O=C(c1ccc2c(c1)CN(C(=O)c1ccc(Cl)s1)C2)N1CCC2(CC1)CCN(c1ccncc1)CC2
3. O=C(c1cn2c(n1)CN(C(=O)c1ccc(Cl)s1)CC2)N1CCC2(CC1)CCN(c1ccncc1)CC2
4. O=C(Cc1ccc2c(c1)N(S(=O)(=O)c1ccccc1C(F)(F)F)CCC2)N1CCC2(CCN(c3ccncc3)CC2)C1

[77, 99, 91, 100]

----------
So I've got a bunch of compounds here, and I need their inhibition at 10 µM values.
Assay Target: B1R receptor of the rat (rB1R) (Rattus norvegicus)
Construct: expressed in transfected cells; host or cells: CHO K1 cells, stably transfected
Assay Comment: FLIPR Ca2+ functional study on bradykinin receptor 1, rB1R cells (CHO K1)
Assay type: cell-based
Conditions: 10 μM test substance; CHO K1 cells with rat B1R; agonist Des-Arg9-bradykinin at EC80; read-out: B1R antagonism, rat [10 μM] % inhibition
Numbers only, in %.

Below: 3 compounds and their reported inhibition at 10 µM.
| Compound | Parameter Measured | Units Symbol | Readout Value |
| --- | --- | --- | --- |
| Cc1cccc(Cl)c1S(=O)(=O)N1Cc2ccc(C(=O)N3CCC4(CC3)CCN(c3ccncc3)CC4)cc2C1 [Compound G-68] | inhibition at 10 µM | % | 81 |
| COc1cc(C)c(S(=O)(=O)N2CCCc3ccc(CC(=O)N4CCC5(CCC(Oc6ccncc6)CC5)CC4)cc32)c(C)c1 [Compound G-30] | inhibition at 10 µM | % | 98 |
| COc1cc(C)c(S(=O)(=O)N2CCCc3ccc(CC(=O)N4CCC5(CC4)CCN(Cc4ccccc4)C5=O)cc32)c(C)c1 [G_CC-053] | inhibition at 10 µM | % | 84 |

Hey, quick one: what's inhibition at 10 µM for each of these?
1. COc1cc(C)c(S(=O)(=O)N2CCCc3ccc(CC(=O)N4CCC5(CC4)CC(c4ccncc4)=NO5)cc32)c(C)c1 [Compound G-33]
2. O=C(Cc1ccc2c(c1)N(S(=O)(=O)c1cccc3ccccc13)CCC2)N1CCC2(CCN(c3ccncc3)C2)C1 (centres unmarked) [Compound G-53]
3. COc1cc(C)c(S(=O)(=O)N2CCc3cccc(C(=O)N4CCC5(CC4)CCN(c4ccncc4)CC5)c3C2)c(C)c1 [Compound G-36]
4. O=C(c1ccc2c(c1)N(C(=O)c1ccccc1Cl)CCC2)N1CCC2(CC1)CCN(c1ccncc1)CC2 [Compound G-21]
5. COc1cc(C)c(S(=O)(=O)N2CCCc3ccc(CC(=O)N4CCC5(CCN(c6ccncc6)CC5)C4)cc32)c(C)c1 [Compound G-11]
6. COc1cc(C)c(S(=O)(=O)N2Cc3ccc(C(=O)N4CCC5(CC4)CCN(c4ccncc4)CC5)cc3C2)c(C)c1 [Compound G-67]

1. 73
2. 105
3. 99
4. 101
5. 99
6. 101
